ASSAY_EXPLANATION: Cytotoxicity against human Molt 4/C8 cells
Assay type: functional, cell-based
CONDITION: Molt4/C8
Exercise: for every item that follows, state its recorded pIC50.
Numbers only, as −log10 of the molar value.

- SMILES_NOTATION: "Cc1ccc(NC(=O)/C=C/C(=O)N2C/C(=C\\c3ccccc3)C(=O)/C(=C/c3ccccc3)C2)cc1C"
  NUMERIC_VALUE: 5.10

Required: pIC50, one value per molecule below.
1. Cc1ccc(NC(=O)/C=C/C(=O)N2C/C(=C\c3ccccc3)C(=O)/C(=C/c3ccccc3)C2)cc1
2. Cc1cccc(C)c1NC(=O)/C=C/C(=O)N1C/C(=C\c2ccccc2)C(=O)/C(=C/c2ccccc2)C1
3. O=C(/C=C/C(=O)N1C/C(=C\c2ccc([N+](=O)[O-])cc2)C(=O)/C(=C/c2ccc([N+](=O)[O-])cc2)C1)Nc1ccc(Cl)c(Cl)c1
4. O=C(/C=C/C(=O)N1C/C(=C\c2ccccc2)C(=O)/C(=C/c2ccccc2)C1)Nc1ccc(Cl)c(Cl)c1
5. CC(=O)c1ccc(NC(=O)/C=C/C(=O)N2C/C(=C\c3ccccc3)C(=O)/C(=C/c3ccccc3)C2)cc1

1. 6.18
2. 5.18
3. 6.22
4. 5.77
5. 5.85

Take each entry in turn and give its pIC50.
1. O=C(/C=C/C(=O)N1C/C(=C\c2ccccc2)C(=O)/C(=C/c2ccccc2)C1)Nc1ccc([N+](=O)[O-])cc1
2. O=C(/C=C/C(=O)N1C/C(=C\c2ccccc2)C(=O)/C(=C/c2ccccc2)C1)Nc1ccccc1

[4.51, 6.28]

###

ASSAY_EXPLANATION: Cytotoxicity against human leukemia cells
Type: functional
CONDITION: Leukemia cell
PARAMETER: log10(GI50) (log10 of the value in µM)
The base-10 logarithm of GI50, taken with GI50 in µM, is what appears here.

Recorded log10(GI50), per entry:
- SMILES_NOTATION: "COc1ccc(NC(=O)/C=C/C(=O)N2C/C(=C\\c3ccccc3)C(=O)/C(=C/c3ccccc3)C2)cc1"
  NUMERIC_VALUE: -0.98
- SMILES_NOTATION: "N[C@@H](Cc1ccc(N(CCCl)CCCl)cc1)C(=O)O"
  NUMERIC_VALUE: 0.60
- SMILES_NOTATION: "O=C(/C=C/C(=O)N1C/C(=C\\c2ccccc2)C(=O)/C(=C/c2ccccc2)C1)Nc1ccc(Cl)cc1"
  NUMERIC_VALUE: -0.23

Batch request: log10(GI50) for each of the following compounds.
1. O=C(/C=C/C(=O)N1C/C(=C\c2ccccc2)C(=O)/C(=C/c2ccccc2)C1)Nc1ccc(Cl)c(Cl)c1
2. O=c1[nH]cc(F)c(=O)[nH]1

1: -0.35; 2: 1.72

###

Field: pIC50. Provide a value for each of the molecules that follow.
ASSAY_EXPLANATION: Cytotoxicity against human Molt 4/C8 cells
Format: functional, cell-based
CONDITION: Molt4/C8
Give bare numbers, as −log10 of the molar value.

Below: 3 molecules and their reported pIC50.
- SMILES_NOTATION: "O=C(/C=C/C(=O)N1C/C(=C\\c2ccc([N+](=O)[O-])cc2)C(=O)/C(=C/c2ccc([N+](=O)[O-])cc2)C1)Nc1ccccc1"
  pIC50: 6.44
- SMILES_NOTATION: "Cc1cccc(C)c1NC(=O)/C=C/C(=O)N1C/C(=C\\c2ccc([N+](=O)[O-])cc2)C(=O)/C(=C/c2ccc([N+](=O)[O-])cc2)C1"
  pIC50: 6.68
- SMILES_NOTATION: "COc1ccc(NC(=O)/C=C/C(=O)N2C/C(=C\\c3ccccc3)C(=O)/C(=C/c3ccccc3)C2)cc1"
  pIC50: 5.96

Next:
Report pIC50 for O=C(/C=C/C(=O)N1C/C(=C\c2ccc([N+](=O)[O-])cc2)C(=O)/C(=C/c2ccc([N+](=O)[O-])cc2)C1)Nc1ccc([N+](=O)[O-])cc1 please.
6.37

###

Exercise: state measured IC50 for each of the compounds provided.
ASSAY_EXPLANATION: Cytotoxicity against human Molt 4/C8 cells
Format: functional, cell-based
CONDITION: Molt4/C8
Give the value; after it, write the unit.

Some compounds with recorded IC50:
- SMILES_NOTATION: "Cc1ccc(NC(=O)/C=C/C(=O)N2C/C(=C\\c3ccc([N+](=O)[O-])cc3)C(=O)/C(=C/c3ccc([N+](=O)[O-])cc3)C2)cc1"
  IC50: "700 nM"
- SMILES_NOTATION: "O=C(/C=C/C(=O)N1C/C(=C\\c2ccc([N+](=O)[O-])cc2)C(=O)/C(=C/c2ccc([N+](=O)[O-])cc2)C1)Nc1ccc(Cl)cc1"
  IC50: "1200 nM"
- SMILES_NOTATION: "O=C(/C=C/C(=O)N1C/C(=C\\c2ccccc2)C(=O)/C(=C/c2ccccc2)C1)Nc1ccc(Cl)cc1"
  IC50: "1800 nM"
- SMILES_NOTATION: "COc1ccc(NC(=O)/C=C/C(=O)N2C/C(=C\\c3ccc([N+](=O)[O-])cc3)C(=O)/C(=C/c3ccc([N+](=O)[O-])cc3)C2)cc1"
  IC50: "940 nM"

Respectfully, I request IC50 for each entry included below.
1. CC(=O)c1ccc(NC(=O)/C=C/C(=O)N2C/C(=C\c3ccc([N+](=O)[O-])cc3)C(=O)/C(=C/c3ccc([N+](=O)[O-])cc3)C2)cc1
2. Cc1ccc(NC(=O)/C=C/C(=O)N2C/C(=C\c3ccc([N+](=O)[O-])cc3)C(=O)/C(=C/c3ccc([N+](=O)[O-])cc3)C2)cc1C

["390 nM", "660 nM"]

Origin of the recorded values: ChEMBL document CHEMBL1149619
